Reference for the values: patent USRE48461E1

System: AR mRNA
Test: Dose-dependent antisense inhibition of human AR in HuVEC cells (electroporation, qRT-PCR RTS3559, IC50)
Format: cell-based
Settings: Table 33; 3000.0 nM, HuVEC, electroporation, approximately 16 hours
Oligonucleotides are written 5' to 3', each unit as a sugar letter and its base; * is a phosphorothioate linkage, no mark a phosphodiester; rarer units and linkages stand in square brackets, end groups in braces. Plain capitals give the bases only. k = constrained ethyl (cEt); [5mC] = 5-methylcytosine; d = 2'-deoxy (DNA)
Would you mind telling me the reported percent inhibition of AR, 3000.0 nM of each entry?
Give bare numbers, in %.

INSERT INTO measurements (substance, measuredparameter, resultunit, reportedmeasurement) VALUES
  ('583833 (kT*kG*kT*dT*d[5mC]*d[5mC]*d[5mC]*d[5mC]*dT*dG*dG*dA*d[5mC]*kT*k[5mC]*kA; antisense) [compound 583833]', 'percent inhibition of AR, 3000.0 nM', '%', 74),
  ('583918 (kA*kG*kT*d[5mC]*dG*d[5mC]*dG*dA*d[5mC]*dT*d[5mC]*dT*dG*kG*kT*kA) [compound 583918]', 'percent inhibition of AR, 3000.0 nM', '%', 86),
  ('583853 (kT*kG*k[5mC]*dA*dT*dT*d[5mC]*dG*dG*d[5mC]*d[5mC]*dA*dA*kT*kG*kG; antisense) [compound 583853]', 'percent inhibition of AR, 3000.0 nM', '%', 80);

Next up:
// returns percent inhibition of AR, 3000.0 nM for 583969 (k[5mC]*k[5mC]*kT*dT*d[5mC]*dT*dT*d[5mC]*dG*dG*d[5mC]*dT*dG*kT*kG*kA; antisense) [compound 583969] with AR mRNA; value = 86
